test name: qHTS assay to identify small molecule antagonists of the thyroid receptor (TR) signaling pathway - cell viability counter screen (AID 743064); note: nearly all actives have a fitted effect of over 50% in size; note: potency is the fitted concentration of half-maximal effect
reported conditions: GH3.TRE-Luc viability, CellTiter-Fluor, 24 h; series mostly up to 70.3 µM
Inconclusive results are not listed. Activity calls are given as the source filed them. Calls come from the whole dose curve; as a rule, active = well fitted cell-killing curve with a large enough effect in the repeat runs; inconclusive = weak or mixed curves, or effect the other way; inactive = no such curve, though single readings can be large or run the other way.

compound | Potency
Nc1ccn([C@@H]2O[C@H](CO)[C@@H](O)[C@@H]2O)c(=O)n1 | 0.217 µM (active)
O=[N+]([O-])c1ccc(/C=N\O)o1 | inactive
Cc1ccc(C(=O)c2ccccc2)cc1 | inactive
O=C1NC(=O)C2CC=CCC12 (centres undefined) | inactive
Cc1nc2ccc(CN(C)c3ccc(C(=O)N[C@@H](CCC(=O)O)C(=O)O)s3)cc2c(=O)[nH]1 | inactive
CC(C(=O)O)c1cccc(Oc2ccccc2)c1 (centres undefined) | inactive
CCCCCCCCCCCCSC | inactive
NCCCC(N)(C(=O)O)C(F)F (centres undefined) | inactive
CCCCCCCCCCCCCCCCCCO | inactive
CC1=NN(c2cccc(S(=O)(=O)O)c2)C(=O)C1 | inactive
[O-][n+]1cccc(CO)c1 | inactive
CCCC(C)C(=O)OCC (centres undefined) | inactive
CC12CCC(C(=O)C1=O)C2(C)C (centres undefined) | inactive
CC(=O)C1CCCCC1=O (centres undefined) | inactive
O=C1CCCCCCCCCCCCCCO1 | inactive
CC[N+](CC)(CC)CCOc1cccc(OCC[N+](CC)(CC)CC)c1OCC[N+](CC)(CC)CC | inactive
CCCCOCCOC(=O)COc1cc(Cl)c(Cl)cc1Cl | inactive
C=CC(C)(CCC=C(C)C)OC(=O)CC (centres undefined) | inactive
CC(C)c1ccc2ncccc2c1 | inactive
CC1(C)OC[C@@H](COC(=O)CCc2ccc(OC[C@@H](O)CNCCNC(=O)N3CCOCC3)cc2)O1 | inactive
NC(CCC(=O)O)C(=O)O (centres undefined) | inactive
CC(C)C[C@@H](N)C(=O)O | inactive
CCOC(=O)c1cnc2c(cnn2CC)c1NN=C(C)C | inactive
Clc1cc(Cl)cc(Cl)c1 | inactive
CCCCCCCC1CCCC1=O (centres undefined) | inactive
CCC(C(=O)NC(=O)NC(C)=O)c1ccccc1 (centres undefined) | inactive
NO | inactive
COC(=O)C1=C(C)NC(C)=C(C(=O)OC(C)C)C1c1cccc2nonc12 (centres undefined) | inactive
CC(=O)c1cnccn1 | inactive

----------
test name: qHTS assay to test for compound auto fluorescence at 590 nm (red) in HepG2 cell free culture (AID 720684); note: % is set by controls: 0 for no effect and ±100 for the full control effect
reported conditions: cell-free medium autofluorescence, red 540/590 nm; series mostly up to 91.3 µM
The source made the active and inactive calls. Calls follow the shape of the dose curve; as a rule, active = well fitted curve in the direction sought with a large enough effect in the repeat runs; inconclusive = weak or mixed curves; inactive = flat fitted curve, though single readings scatter.
reported endpoint: fluorescence, % of Rose Bengal

compound | reported endpoint | result
CN(C)C(=O)Oc1cccc([N+](C)(C)C)c1 | fluorescence, % of Rose Bengal | inactive
CCCCN1C=CN(C)C1 | fluorescence, % of Rose Bengal | 0.057% [at 18.6 µM] (inactive)
C=CC(C)(CCC=C(C)C)OC(=O)CC (stereo unspecified) | fluorescence, % of Rose Bengal | inactive
C[C@H]1C[C@H]2[C@@H]3CCC4=CC(=O)C=C[C@]4(C)[C@H]3C(=O)C[C@]2(C)[C@@]1(O)C(=O)CO | fluorescence, % of Rose Bengal | inactive
CC1=CCC(O)(C(C)C)CC1 (stereo unspecified) | fluorescence, % of Rose Bengal | inactive
C1CCC2=NCCCN2CC1 | fluorescence, % of Rose Bengal | inactive
NCCCC[C@H](N[C@@H](CCc1ccccc1)C(=O)O)C(=O)N1CCC[C@H]1C(=O)O | fluorescence, % of Rose Bengal | -0.221% [at 18.6 µM] (inactive)
O=C(O)c1cc(C(=O)O)cc(C(=O)O)c1 | fluorescence, % of Rose Bengal | inactive
CN(C)C(=O)Oc1ccc[n+](C)c1 | fluorescence, % of Rose Bengal | inactive
CCCc1ncc(C[n+]2ccccc2C)c(N)n1 | fluorescence, % of Rose Bengal | -0.0113% [at 18.6 µM] (inactive)
CCCc1nn(C)c2c(=O)[nH]c(-c3cc(S(=O)(=O)N4CCN(C)CC4)ccc3OCC)nc12 | fluorescence, % of Rose Bengal | inactive
CC(=O)N1C[C@H](O)C[C@H]1C(=O)O | fluorescence, % of Rose Bengal | inactive
O=S(=O)(O)c1cccc(S(=O)(=O)O)c1 | fluorescence, % of Rose Bengal | inactive
OCCc1ccccn1 | fluorescence, % of Rose Bengal | inactive
C[N+]12CCC(CC1)C(OC(=O)C(O)(c1ccccc1)c1ccccc1)C2 (stereo unspecified) | fluorescence, % of Rose Bengal | 0.213% [at 18.6 µM] (inactive)
CC1=CC(=O)[C@H]2C[C@@H]1C2(C)C | fluorescence, % of Rose Bengal | inactive
CC[N+](C)(CC)CCOC(=O)C1c2ccccc2Oc2ccccc21 | fluorescence, % of Rose Bengal | inactive
C[N+]1(C)CCCC(OC(=O)C(O)(c2ccccc2)c2ccccc2)C1 (stereo unspecified) | fluorescence, % of Rose Bengal | -0.11% [at 18.6 µM] (inactive)
CC(=O)OCC(=O)[C@@]1(O)[C@H](C)C[C@H]2[C@@H]3CCC4=CC(=O)C=C[C@]4(C)[C@@]3(F)[C@@H](O)C[C@@]21C | fluorescence, % of Rose Bengal | inactive
CCCCCCCC1CCCC1=O (stereo unspecified) | fluorescence, % of Rose Bengal | inactive
CCOc1ccc2nc(S(N)(=O)=O)sc2c1 | fluorescence, % of Rose Bengal | inactive
C=CCCCCCCCCC(=O)OCC | fluorescence, % of Rose Bengal | inactive
CC(C)COC(=O)c1ccc(N)cc1 | fluorescence, % of Rose Bengal | inactive
CN1CCC(=C2c3ccccc3CCc3cccnc32)CC1 | fluorescence, % of Rose Bengal | inactive
COc1ccnc(CS(=O)c2nc3cc(OC(F)F)ccc3[nH]2)c1OC (stereo unspecified) | fluorescence, % of Rose Bengal | inactive
c1coc(CNc2ncnc3nc[nH]c23)c1 | fluorescence, % of Rose Bengal | inactive

----------
test name: qHTS assay to identify small molecule antagonists of the thyroid receptor (TR) signaling pathway - cell viability counter screen (AID 743064); note: nearly all actives have a fitted effect of over 50% in size
reported conditions: GH3.TRE-Luc viability, CellTiter-Fluor, 24 h; series mostly up to 70.3 µM
Inconclusive results are not listed. Active and inactive are the calls of the source. The call rests on the fitted dose curve; in most records, active means well fitted cell-killing curve with a large enough effect in the repeat runs; inconclusive means weak or mixed curves, or effect the other way; inactive means no such curve, though single readings can be large or run the other way.
Labels: YES (active), NO (inactive)

molecule | class assignment
CCOC(=O)COC(=O)c1ccccc1C(=O)OCC | NO
c1ccc(CCc2ccccc2)cc1 | NO
CCCCc1ccc2c(n1)[C@@H](c1ccc(OC)cc1C[C@H](C)C(=O)O)[C@H](C(=O)O)[C@H]2c1ccc2c(c1)OCO2 | NO
CC[C@H]1OC(=O)[C@H](C)[C@@H](O[C@H]2C[C@@](C)(OC)[C@@H](O)[C@H](C)O2)[C@H](C)[C@@H](O[C@@H]2O[C@H](C)C[C@H](N(C)C)[C@H]2O)[C@](C)(OC)C[C@@H](C)C(=O)[C@H](C)[C@@H](O)[C@]1(C)O | NO
CCC(C)(CN(C)C)OC(=O)c1ccccc1 (centres undefined) | NO
CC1CCC(CO)CC1 (centres undefined) | NO
Cc1cccc(C)c1NC(=O)CC12CCCN1CCC2 | NO
O=S(=O)(O)c1cc(O)c(O)c(S(=O)(=O)O)c1 | NO
CCCO[Si](OCCC)(OCCC)OCCC | NO
CC(C#N)(CCC(=O)O)N=NC(C)(C#N)CCC(=O)O (centres undefined) | NO
CCN[C@@H]1C[C@H](N)[C@@H](OC2OC(CN)=CCC2N)[C@H](O)[C@H]1O[C@H]1OC[C@](C)(O)[C@H](NC)[C@H]1O (some centres undefined) | NO
O=C(CO)[C@@H](O)[C@H](O)[C@@H](O)CO | NO
CO[C@@]1(NC(=O)CSC[C@@H](N)C(=O)O)C(=O)N2C(C(=O)O)=C(CSc3nnnn3C)CS[C@@H]21 | NO
COc1cc(C)nc(-n2nc(C)cc2OC)n1 | NO
C=CC(=O)OCCCl | NO
COc1ccccc1OCC1CNC(=O)O1 (centres undefined) | NO
CCCCCC(C)N (centres undefined) | NO
CNCCO | NO
NC(=O)N1c2ccccc2CC(=O)c2ccccc21 | YES
NS(=O)(=O)Cc1noc2ccccc12 | NO
O=Cc1cccc(Br)c1 | NO
CCCCCCCCCCOc1cc2c(=O)c(C(=O)OCC)c[nH]c2cc1OCC | NO
CCCOC(=O)CC | NO
CC(C)(CCC(=O)O)C(=O)O | NO

----------
test name: A CellTox Green Cytotoxicity Assay to monitor cytotoxicity in HepG2 cells - 32 hour (AID 1224883); note: % is set by controls: 0 for no effect and ±100 for the full control effect; nearly all actives have a fitted effect of over 50% in size
reported conditions: CellTox Green fluorescence; series mostly up to 76.8 µM
Records with an inconclusive call do not appear. The source made the active and inactive calls. The call rests on the fitted dose curve; in most records, active means well fitted activation curve with a large enough effect in the repeat runs; inconclusive means weak or mixed curves; inactive means flat fitted curve, though single readings scatter.

compound | cytotoxicity increase
CCOC(=O)OC(C)OC1=C(C(=O)Nc2ccccn2)N(C)S(=O)(=O)c2ccccc21 (stereo unspecified) | inactive
CCCCOC(=O)CCC(C)=O | inactive
Nc1ccn([C@@H]2O[C@H](CO)[C@@H](O)C2O)c(=O)n1 (stereo partly specified) | inactive
CCN(CC#N)c1cccc(C)c1 | inactive
O=S(=O)(O)c1cc(O)c(O)c(S(=O)(=O)O)c1 | inactive
COc1cc(C)nc(-n2nc(C)cc2OC)n1 | inactive
